assay: p53 small molecule agonists, cell-based qHTS assay with rat liver microsomes: qHTS cell viability counter screen (AID 1963580); conditions: p53RE-bla HCT-116 + rat microsomes, ATP viability, 16 h; series mostly up to 66 µM; note: nearly all actives have a fitted effect of over 45% in size
Inconclusive results are not listed. Calls of active or inactive are those of the source. Calls come from the whole dose curve.
parameter: outcome

Cc1cc(C(F)(C(F)(F)F)C(F)(F)F)ccc1NC(=O)c1cccc(I)c1C(=O)NC(C)(C)CS(C)(=O)=O	inactive
Cc1c(COC(=O)[C@@H]2[C@H](/C=C(\Cl)C(F)(F)F)C2(C)C)cccc1-c1ccccc1	inactive
CC(C)(C)C(=O)C(Oc1ccc(Cl)cc1)n1cncn1 (centres undefined)	inactive
CC(=O)[O-].CC(=O)[O-].O.O.O.[Pb+2]	inactive
C=CCC1=C(C)[C@@H](OC(=O)[C@@H]2[C@@H](C=C(C)C)C2(C)C)CC1=O	inactive
NC(=O)C(Cl)Cl	inactive
CN1COCN(Cc2cnc(Cl)s2)/C1=N\[N+](=O)[O-]	inactive
Cc1cc(C)c(C2=C(OC(=O)CC(C)(C)C)C3(CCCC3)OC2=O)c(C)c1	inactive
Clc1cc(Cl)c(-c2cc(Cl)c(Cl)cc2Cl)cc1Cl	inactive
COc1cc(C[C@@H](C)N)c(OC)cc1Br	inactive

Task: Report outcome, nothing else, for this molecule: COP(=S)(OC)Oc1cc(Cl)c(Br)cc1Cl
Output: inactive

Task: Report outcome, nothing else, for this molecule: O=C(N[C@H](c1ccccc1)[C@@H]1CN2CCC1CC2)c1c(Cl)ccc(C(F)(F)F)c1Cl
Output: inactive
